Molecular target: SpCyk3
Assay: SPOT peptide array binding signal intensity (averaged, normalized) (arbitrary units (background-subtracted, floor 0; scale differs between SH3 domains)); higher = stronger binding of the SH3 domain to the peptide
reported_property: SPOT peptide array binding signal intensity

{"binder": "FYNRTAFQLPGDARV", "operator": "=", "number": 2}
{"binder": "GLRRARYKFPGQQKI", "operator": "=", "number": 6}
{"binder": "RTIRKLPLMSLSEYF", "operator": "=", "number": 8.5}
{"binder": "LKVTPGRRAPTISKI", "operator": "=", "number": 1.5}
{"binder": "TIRRRAPLSLLESHT", "operator": "=", "number": 2}
{"binder": "TPTSGPPLLPPRNTM", "operator": "=", "number": 4.5}
{"binder": "GATNNAPTLPKRKNP", "operator": "≤", "number": 0}

Each recorded value in this set is attributed to the supplement of paper PMC4466140.
